Tested on: LN-229 (Glioblastoma)
Assay: combination Emax (second highest fraction inhibited in the dose matrix, 72 h); higher = more inhibition; extreme values may be limits of the assay
Recorded combination Emax for the following compounds

- compound: "COc1cccc(OCCCN)c1-c1cc(Nc2cnc(C#N)cn2)n[nH]1 [Prexasertib] + C[C@@H]1COCCN1C2=NC(=NC(=C2)C3(CC3)[S@](=N)(=O)C)C4=C5C=CNC5=NC=C4 [AZD6738] (first compound max 1 µM, 7x7, partner max 10 µM)"
  combination Emax: 0.791
- compound: "CCN(CCO)CCCOc1ccc2c(Nc3cc(CC(=O)Nc4cccc(F)c4)[nH]n3)ncnc2c1 [AZD2811] + O=C(c1cc(Cc2n[nH]c(=O)c3ccccc23)ccc1F)N1CCN(C(=O)C2CC2)CC1 [Olaparib] (first compound max 1 µM, 7x7, partner max 10 µM)"
  combination Emax: 0.167

* * *

Test system: WM278 (Melanoma)
Experiment: combination Emax (second highest fraction inhibited in the dose matrix, 72 h); higher = more inhibition; extreme values may be limits of the assay

- compound: "NC1(C(=O)N[C@@H](CCO)c2ccc(Cl)cc2)CCN(c2ncnc3[nH]ccc23)CC1 [Capivasertib] + C[C@@H]1COCCN1C2=NC(=NC(=C2)C3(CC3)[S@](=N)(=O)C)C4=C5C=CNC5=NC=C4 [AZD6738] (first compound max 10 µM, 7x7, partner max 10 µM)"
  combination Emax: 0.579
- compound: "CC1(C)CCC(CN2CCN(c3ccc(C(=O)NS(=O)(=O)c4ccc(NCC5CCOCC5)c([N+](=O)[O-])c4)c(Oc4cnc5[nH]ccc5c4)c3)CC2)=C(c2ccc(Cl)cc2)C1 [Venetoclax] + CN(C)CCCOc1ccc(-c2ccc3ncc4c(c3c2)n(C2CCOCC2)c(=O)n4C)cn1 [AZD0156] (first compound max 1 µM, 7x7, partner max 1 µM)"
  combination Emax: 0.211
- compound: "Cc1nc(Nc2ncc(C(=O)Nc3c(C)cccc3Cl)s2)cc(N2CCN(CCO)CC2)n1 [Dasatinib] + CC(=O)Nc1cccc(-n2c(=O)n(C3CC3)c(=O)c3c(Nc4ccc(I)cc4F)n(C)c(=O)c(C)c32)c1 [Trametinib] (first compound max 2 µM, 7x7, partner max 1 µM)"
  combination Emax: 0.808

* * *

System: HEC-1 (Endometrial Carcinoma);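 further: after 72 h of two-drug dosing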
Test: Bliss excess, mean over the matrix (fraction); higher = more synergy

- compound: "NC1(C(=O)N[C@@H](CCO)c2ccc(Cl)cc2)CCN(c2ncnc3[nH]ccc23)CC1 [Capivasertib] + Cn1cnc2c(F)c(Nc3ccc(Br)cc3Cl)c(C(=O)NOCCO)cc21 [Selumetinib] (first compound max 10 µM, 7x7, partner max 10 µM)"
  Bliss excess: 0.0234
- compound: "Cc1c2c(nn1C)CSCc1cc(n(C)n1)CSc1cc(c3ccccc3c1)OCCCc1c(C(=O)O)n(C)c3c-2c(Cl)ccc13 [AZD5991] + CN(C)CCCOc1ccc(-c2ccc3ncc4c(c3c2)n(C2CCOCC2)c(=O)n4C)cn1 [AZD0156] (first compound max 1 µM, 7x7, partner max 1 µM)"
  Bliss excess: -0.0025
- compound: "CN(C)CCCOc1ccc(-c2ccc3ncc4c(c3c2)n(C2CCOCC2)c(=O)n4C)cn1 [AZD0156] + C=CCn1c(=O)c2cnc(Nc3ccc(N4CCN(C)CC4)cc3)nc2n1-c1cccc(C(C)(C)O)n1 [AZD1775] (first compound max 1 µM, partner max 1 µM)"
  Bliss excess: -0.0257
- compound: "COc1cc2c(cc1OCCCCCOc1cc3c(cc1OC)C(=O)N1C=C(C)C[C@H]1C=N3)N=C[C@@H]1CC(C)=CN1C2=O [SG3199] + O=C(c1cc(Cc2n[nH]c(=O)c3ccccc23)ccc1F)N1CCN(C(=O)C2CC2)CC1 [Olaparib] (first compound max 0.001 µM, 7x7, partner max 10 µM)"
  Bliss excess: 0.0483
- compound: "CS(=O)(=O)CCNCc1ccc(-c2ccc3ncnc(Nc4ccc(OCc5cccc(F)c5)c(Cl)c4)c3c2)o1 [Lapatinib] + C[C@@H](Oc1cc(-c2cnn(C3CCNCC3)c2)cnc1N)c1c(Cl)ccc(F)c1Cl [Crizotinib] (first compound max 10 µM, 7x7, partner max 10 µM)"
  Bliss excess: -0.021
- compound: "Cc1nc(Nc2ncc(C(=O)Nc3c(C)cccc3Cl)s2)cc(N2CCN(CCO)CC2)n1 [Dasatinib] + CC(=O)Nc1cccc(-n2c(=O)n(C3CC3)c(=O)c3c(Nc4ccc(I)cc4F)n(C)c(=O)c(C)c32)c1 [Trametinib] (first compound max 2 µM, 7x7, partner max 1 µM)"
  Bliss excess: 0.0095
- compound: "Cc1c2c(nn1C)CSCc1cc(n(C)n1)CSc1cc(c3ccccc3c1)OCCCc1c(C(=O)O)n(C)c3c-2c(Cl)ccc13 [AZD5991] + Cc1cc2ncnn2cc1Nc1ncc2c(n1)n(C1CCOCC1)c(=O)n2C [AZD7648] (first compound max 1 µM, 7x7, partner max 10 µM)"
  Bliss excess: -0.0375
- compound: "COc1cc2ncnc(Nc3ccc(F)c(Cl)c3)c2cc1OCCCN1CCOCC1 [Gefitinib] + CC(C)n1c(=O)n(C)c2cnc3cc(F)c(-c4ccc(OCCCN5CCCCC5)nc4)cc3c21 [AZD1390] (first compound max 10 µM, 7x7, partner max 0.3 µM)"
  Bliss excess: -0.0442
- compound: "Cc1cc2ncnn2cc1Nc1ncc2c(n1)n(C1CCOCC1)c(=O)n2C [AZD7648] + CN(C)CCCOc1ccc(-c2ccc3ncc4c(c3c2)n(C2CCOCC2)c(=O)n4C)cn1 [AZD0156] (first compound max 10 µM, 7x7, partner max 1 µM)"
  Bliss excess: -0.0239
- compound: "C[C@@H](c1ccc2nccn2c1)n1nnc2ncc(-c3cnn(C)c3)nc21 [Savolitinib] + CN(CC[C@H](CSC1=CC=CC=C1)NC2=C(C=C(C=C2)S(=O)(=O)NC(=O)C3=CC=C(C=C3)N4CCC(CC4)[C@H](C5=CC=CC=C5C6=CC=C(C=C6)Cl)O)S(=O)(=O)C(F)(F)F)CCO [AZD4320] (first compound max 1 µM, 7x7, partner max 1 µM)"
  Bliss excess: -0.027
- compound: "CC1(C)CCC(CN2CCN(c3ccc(C(=O)NS(=O)(=O)c4ccc(NCC5CCOCC5)c([N+](=O)[O-])c4)c(Oc4cnc5[nH]ccc5c4)c3)CC2)=C(c2ccc(Cl)cc2)C1 [Venetoclax] + Cc1cc2ncnn2cc1Nc1ncc2c(n1)n(C1CCOCC1)c(=O)n2C [AZD7648] (first compound max 1 µM, 7x7, partner max 10 µM)"
  Bliss excess: -0.0286
- compound: "NC1(C(=O)N[C@@H](CCO)c2ccc(Cl)cc2)CCN(c2ncnc3[nH]ccc23)CC1 [Capivasertib] + COc1nnc2ccc(N3CCC(c4ccc(OCCN5CCN(C)C(=O)[C@H]5C)cc4)CC3)nn12 [AZD5153] (first compound max 10 µM, 7x7, partner max 1 µM)"
  Bliss excess: 0.0143
- compound: "CC(=O)c1c(C)c2cnc(Nc3ccc(N4CCNCC4)cn3)nc2n(C2CCCC2)c1=O [Palbociclib] + Cc1c2c(nn1C)CSCc1cc(n(C)n1)CSc1cc(c3ccccc3c1)OCCCc1c(C(=O)O)n(C)c3c-2c(Cl)ccc13 [AZD5991] (first compound max 10 µM, 7x7, partner max 1 µM)"
  Bliss excess: -0.0336
- compound: "Cc1c2c(nn1C)CSCc1cc(n(C)n1)CSc1cc(c3ccccc3c1)OCCCc1c(C(=O)O)n(C)c3c-2c(Cl)ccc13 [AZD5991] + C1CN(CCC1(C(=O)N[C@@H](CCO)C2=CC=C(C=C2)Cl)N)C3=NC=NC4=C3C=CN4 [Capivasertib] (first compound max 1 µM, 7x7, partner max 3 µM)"
  Bliss excess: -0.025
- compound: "CC(=O)c1c(C)c2cnc(Nc3ccc(N4CCNCC4)cn3)nc2n(C2CCCC2)c1=O [Palbociclib] + CN(CC[C@H](CSC1=CC=CC=C1)NC2=C(C=C(C=C2)S(=O)(=O)NC(=O)C3=CC=C(C=C3)N4CCC(CC4)[C@H](C5=CC=CC=C5C6=CC=C(C=C6)Cl)O)S(=O)(=O)C(F)(F)F)CCO [AZD4320] (first compound max 10 µM, 7x7, partner max 1 µM)"
  Bliss excess: -0.125
